Exercise: for every item that follows, state its recorded pEC50.
biological target: TRAAK/EK-1 M4-C (Mus musculus, UniProt O88454+P97438, F242V/L235V/N256D/S249A/T252S/T253M); construct: and Tyr234 K2P4.1(TRAAK); expressed in transfected cells; host or cells: Xenopus laevis oocytes, mRNA injected; chimera built by Gibson assembly; test: TEVC of chimera TRAAK/EK-1 M4-C; format: cell-based; conditions: Xenopus oocytes
Sequence (O88454+P97438 fused with the stated changes): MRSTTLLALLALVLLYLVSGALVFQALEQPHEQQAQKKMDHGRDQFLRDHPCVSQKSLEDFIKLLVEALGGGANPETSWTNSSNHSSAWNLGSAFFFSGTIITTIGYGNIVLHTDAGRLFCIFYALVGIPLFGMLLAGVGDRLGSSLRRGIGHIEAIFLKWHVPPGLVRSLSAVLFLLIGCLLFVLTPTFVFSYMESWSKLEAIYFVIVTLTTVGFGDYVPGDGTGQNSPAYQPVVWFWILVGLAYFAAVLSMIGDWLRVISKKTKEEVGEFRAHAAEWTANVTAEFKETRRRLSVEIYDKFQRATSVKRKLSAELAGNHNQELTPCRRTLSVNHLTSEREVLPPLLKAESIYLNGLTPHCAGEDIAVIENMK
One number for each entry, as −log10 of the molar value.

| molecule | pEC50 |
| --- | --- |
| CC1(C)c2cc(Cl)ccc2N(CCc2nn[nH]n2)c2ccc(Cl)cc21 [ML67-33] | 4.51 |

// query Tell me the measured pEC50 of c1ccc(-c2nnn[nH]2)c(Nc2cccc3c2CCCC3)c1 [BL-1249] , please.
// result 4.35

These entries and their values trace back to paper PMC6302903.
